This section presents binders with their documented peptide exchange yield values.
target: T1, HLA-A*02:01 (human); assay: UV-ligand exchange + anti-b2m ELISA; peptide exchange yield grade (+ >=10%, ++ >=20%, +++ >=50, ++++ >=75%)
T1 construct: MHC monomers first loaded with a UV-sensitive peptide (not identified) that is cleaved by UV light and exchanged for the test peptide; captured on streptavidin plates, detected with anti-β2m; also called peptide-receptive MHC molecules; MHC class I
quantity_name: peptide exchange yield

binder="FLVDFEQSHL (source gene CYP2J2) [FLVDFEQSHL (SEQ ID NO: 58)]" meas_value="≥ 75%"
binder="SLQKEILYL (source gene ATG2B) [SLQKEILYL (SEQ ID NO: 57)]" meas_value="20 to 50%"
binder="KLQDGLLHI (source gene TIMP1) [KLQDGLLHI (SEQ ID NO: 103)]" meas_value="20 to 50%"
binder="GLAPHLEQI (source gene IPO4) [GLAPHLEQI (SEQ ID NO: 99)]" meas_value="20 to 50%"
binder="VILDTGTIQL (source gene NAT8) [VILDTGTIQL (SEQ ID NO: 42)]" meas_value="20 to 50%"
binder="SLSDHIVLL (source gene ITGA3) [SLSDHIVLL (SEQ ID NO: 50)]" meas_value="20 to 50%"
